test-target: Gastrin/cholecystokinin type B receptor (Homo sapiens)
Sequence (P32239 whole entry): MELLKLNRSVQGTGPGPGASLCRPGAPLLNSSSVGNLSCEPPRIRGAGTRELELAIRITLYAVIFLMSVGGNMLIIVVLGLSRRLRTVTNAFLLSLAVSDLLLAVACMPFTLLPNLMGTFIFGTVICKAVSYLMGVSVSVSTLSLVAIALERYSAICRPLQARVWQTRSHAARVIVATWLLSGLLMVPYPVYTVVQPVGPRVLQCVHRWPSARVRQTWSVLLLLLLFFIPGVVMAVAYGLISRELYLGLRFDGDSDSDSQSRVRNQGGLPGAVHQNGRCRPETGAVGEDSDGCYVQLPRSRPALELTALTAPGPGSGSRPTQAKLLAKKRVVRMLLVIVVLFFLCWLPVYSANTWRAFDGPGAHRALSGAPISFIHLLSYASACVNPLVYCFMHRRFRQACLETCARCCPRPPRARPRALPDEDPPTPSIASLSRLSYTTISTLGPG
assay-info: Displacement of [125I]CCK-26-33 from CCK2 receptor expressed in CHO cells
Format: cell-based
metric-name: Ki (nM)

{"columns": ["smiles-record", "metric-name", "recorded-result"],
 "data": [
  ["CN1C(=O)[C@H](NC(=O)Nc2cccc(OCCNC(=O)COCC(=O)NNC(=O)COCC(=O)N[C@H]3CC[C@@]4(O)[C@H]5Cc6cc(O)cc7c6[C@@]4(CCN5C)[C@H]3O7)c2)N=C(c2ccccc2)c2ccccc21", "Ki", 356],
  ["CN1C(=O)[C@H](NC(=O)Nc2cccc(OCCNC(=O)COCC(=O)N[C@H]3CC[C@@]4(O)[C@H]5Cc6cc(O)cc7c6[C@@]4(CCN5C)[C@H]3O7)c2)N=C(c2ccccc2)c2ccccc21", "Ki", 223],
  ["CN1C(=O)[C@H](NC(=O)Nc2cccc(OCCNC(=O)COCC(=O)NCCCCCCNC(=O)COCC(=O)N[C@H]3CC[C@@]4(O)[C@H]5Cc6cc(O)cc7c6[C@@]4(CCN5C)[C@H]3O7)c2)N=C(c2ccccc2)c2ccccc21", "Ki", 260],
  ["CN1C(=O)[C@H](NC(=O)Nc2cccc(OCCNC(=O)COCC(=O)NCCNC(=O)COCC(=O)N[C@H]3CC[C@@]4(O)[C@H]5Cc6cc(O)cc7c6[C@@]4(CCN5C)[C@H]3O7)c2)N=C(c2ccccc2)c2ccccc21", "Ki", 71]
]}

* * *

test-target: Gastrin/cholecystokinin type B receptor (Homo sapiens, UniProt P32239)
Sequence (P32239 whole entry): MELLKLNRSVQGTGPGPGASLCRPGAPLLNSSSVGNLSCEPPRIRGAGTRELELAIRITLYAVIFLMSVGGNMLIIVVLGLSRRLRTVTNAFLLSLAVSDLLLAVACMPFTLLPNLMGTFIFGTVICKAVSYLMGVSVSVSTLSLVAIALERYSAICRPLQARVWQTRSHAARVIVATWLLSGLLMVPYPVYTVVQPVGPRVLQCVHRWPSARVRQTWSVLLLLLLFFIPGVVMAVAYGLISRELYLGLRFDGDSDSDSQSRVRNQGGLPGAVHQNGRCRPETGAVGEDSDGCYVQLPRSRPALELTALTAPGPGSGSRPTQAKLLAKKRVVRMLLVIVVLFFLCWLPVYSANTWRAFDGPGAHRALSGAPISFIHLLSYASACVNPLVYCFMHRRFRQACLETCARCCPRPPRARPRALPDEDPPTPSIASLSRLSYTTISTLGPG
assay-info: Activity at CCK2R-MOPR coexpressed in CHO cells co-transfected with delta-6-Galphaqi4-myr assessed as intracellular calcium release by FLIPR
# Lookup of reported EC50 keyed by entry
metric-name: EC50 (nM)

{"columns": ["molecule", "test-target", "metric-name", "readout-qualifier", "recorded-result"],
 "data": [
  ["CNC(=O)COCC(=O)NCCCCNC(=O)COCC(=O)N[C@H]1CC[C@@]2(O)[C@H]3Cc4cc(O)cc5c4[C@@]2(CCN3C)[C@H]1O5", "Gastrin/cholecystokinin type B receptor (Homo sapiens, UniProt P32239)", "EC50", "=", 572],
  ["CNC(=O)COCC(=O)NCCCCCCNC(=O)COCC(=O)NCCOc1cccc(NC(=O)N[C@@H]2N=C(c3ccccc3)c3ccccc3N(C)C2=O)c1", "Gastrin/cholecystokinin type B receptor (Homo sapiens, UniProt P32239)", "EC50", "<", 10000],
  ["CN1C(=O)[C@H](NC(=O)Nc2cccc(OCCNC(=O)COCC(=O)NCCNC(=O)COCC(=O)N[C@H]3CC[C@@]4(O)[C@H]5Cc6cc(O)cc7c6[C@@]4(CCN5C)[C@H]3O7)c2)N=C(c2ccccc2)c2ccccc21", "Gastrin/cholecystokinin type B receptor (Homo sapiens, UniProt P32239)", "EC50", "=", 119],
  ["C[C@@H](NC(=O)[C@@H](N)Cc1ccc(O)cc1)C(=O)NCC(=O)N(C)[C@@H](Cc1ccccc1)C(=O)NCCO [DAMGO]", "Gastrin/cholecystokinin type B receptor (Homo sapiens, UniProt P32239)", "EC50", "=", 2.66]
]}

* * *

System: Mus musculus
assay-info: Antinociceptive activity in icv dosed ICR mouse by tail flick assay
Format: functional
Documented ED50 across a set of molecules

{"columns": ["smiles-record", "unit-info", "ED50"],
 "data": [
  ["CN1C(=O)[C@H](NC(=O)Nc2cccc(OCCNC(=O)COCC(=O)N[C@H]3CC[C@@]4(O)[C@H]5Cc6cc(O)cc7c6[C@@]4(CCN5C)[C@H]3O7)c2)N=C(c2ccccc2)c2ccccc21", "pmol", 3036],
  ["CN1C(=O)[C@H](NC(=O)Nc2cccc(OCCNC(=O)COCC(=O)NNC(=O)COCC(=O)N[C@H]3CC[C@@]4(O)[C@H]5Cc6cc(O)cc7c6[C@@]4(CCN5C)[C@H]3O7)c2)N=C(c2ccccc2)c2ccccc21", "pmol", 47.41],
  ["CNC(=O)COCC(=O)NCCCCNC(=O)COCC(=O)N[C@H]1CC[C@@]2(O)[C@H]3Cc4cc(O)cc5c4[C@@]2(CCN3C)[C@H]1O5", "pmol", 51.93]
]}

* * *

Reported Bmax is given for each of the following molecules.
test-target: Mu-type opioid receptor (Homo sapiens, UniProt P35372)
Sequence (P35372 whole entry): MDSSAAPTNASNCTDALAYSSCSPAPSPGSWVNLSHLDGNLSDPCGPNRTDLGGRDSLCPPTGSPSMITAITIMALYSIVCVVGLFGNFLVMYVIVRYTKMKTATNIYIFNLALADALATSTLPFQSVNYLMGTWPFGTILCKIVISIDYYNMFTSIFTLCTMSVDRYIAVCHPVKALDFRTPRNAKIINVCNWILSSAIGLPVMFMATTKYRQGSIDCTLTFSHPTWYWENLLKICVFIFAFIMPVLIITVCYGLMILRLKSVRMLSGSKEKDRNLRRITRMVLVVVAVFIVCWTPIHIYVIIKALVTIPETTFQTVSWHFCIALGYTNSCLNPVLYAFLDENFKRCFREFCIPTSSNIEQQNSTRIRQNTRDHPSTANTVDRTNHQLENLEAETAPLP
assay-info: Binding affinity to mu opioid receptor expressed in CHO cells assessed per mg of protein
Assay type: cell-based

{"columns": ["smiles-record", "unit-info", "Bmax"],
 "data": [
  ["CN1C(=O)[C@H](NC(=O)Nc2cccc(OCCNC(=O)COCC(=O)NCCNC(=O)COCC(=O)N[C@H]3CC[C@@]4(O)[C@H]5Cc6cc(O)cc7c6[C@@]4(CCN5C)[C@H]3O7)c2)N=C(c2ccccc2)c2ccccc21", "pmol", 7.7],
  ["CN1C(=O)[C@H](NC(=O)Nc2cccc(OCCNC(=O)COCC(=O)NCCCCCCNC(=O)COCC(=O)N[C@H]3CC[C@@]4(O)[C@H]5Cc6cc(O)cc7c6[C@@]4(CCN5C)[C@H]3O7)c2)N=C(c2ccccc2)c2ccccc21", "pmol", 7.4],
  ["C[C@@H](NC(=O)[C@@H](N)Cc1ccc(O)cc1)C(=O)NCC(=O)N(C)[C@@H](Cc1ccccc1)C(=O)NCCO", "pmol", 9.2],
  ["CN1C(=O)[C@H](NC(=O)Nc2cccc(OCCNC(=O)COCC(=O)N[C@H]3CC[C@@]4(O)[C@H]5Cc6cc(O)cc7c6[C@@]4(CCN5C)[C@H]3O7)c2)N=C(c2ccccc2)c2ccccc21", "pmol", 12.4],
  ["CNC(=O)COCC(=O)NCCCCNC(=O)COCC(=O)N[C@H]1CC[C@@]2(O)[C@H]3Cc4cc(O)cc5c4[C@@]2(CCN3C)[C@H]1O5", "pmol", 9.3],
  ["CN1C(=O)[C@H](NC(=O)Nc2cccc(OCCNC(=O)COCC(=O)NNC(=O)COCC(=O)N[C@H]3CC[C@@]4(O)[C@H]5Cc6cc(O)cc7c6[C@@]4(CCN5C)[C@H]3O7)c2)N=C(c2ccccc2)c2ccccc21", "pmol", 9.8]
]}

* * *

test-target: Mu-type opioid receptor (Homo sapiens, UniProt P35372)
assay-info: Displacement of [3H]DAMGO from mu opioid receptor expressed in CHO cells
Format: cell-based
measurement-parameters: read-out: Ki
Here, each record is paired with measured Ki data.

{"columns": ["smiles-record", "test-target", "Ki [nM]"],
 "data": [
  ["CN1C(=O)[C@H](NC(=O)Nc2cccc(OCCNC(=O)COCC(=O)N[C@H]3CC[C@@]4(O)[C@H]5Cc6cc(O)cc7c6[C@@]4(CCN5C)[C@H]3O7)c2)N=C(c2ccccc2)c2ccccc21", "Mu-type opioid receptor (Homo sapiens, UniProt P35372)", 24.1],
  ["CN1C(=O)[C@H](NC(=O)Nc2cccc(OCCNC(=O)COCC(=O)NCCCCCCNC(=O)COCC(=O)N[C@H]3CC[C@@]4(O)[C@H]5Cc6cc(O)cc7c6[C@@]4(CCN5C)[C@H]3O7)c2)N=C(c2ccccc2)c2ccccc21", "Mu-type opioid receptor (Homo sapiens, UniProt P35372)", 29.4],
  ["CN1C(=O)[C@H](NC(=O)Nc2cccc(OCCNC(=O)COCC(=O)NCCNC(=O)COCC(=O)N[C@H]3CC[C@@]4(O)[C@H]5Cc6cc(O)cc7c6[C@@]4(CCN5C)[C@H]3O7)c2)N=C(c2ccccc2)c2ccccc21", "Mu-type opioid receptor (Homo sapiens, UniProt P35372)", 5.7],
  ["CN1C(=O)[C@H](NC(=O)Nc2cccc(OCCNC(=O)COCC(=O)NNC(=O)COCC(=O)N[C@H]3CC[C@@]4(O)[C@H]5Cc6cc(O)cc7c6[C@@]4(CCN5C)[C@H]3O7)c2)N=C(c2ccccc2)c2ccccc21", "Mu-type opioid receptor (Homo sapiens, UniProt P35372)", 8.3]
]}
